percent inhibition of human Factor XI mRNA, relative to untreated control cells by entry:
tested on: human Factor XI mRNA; assay: Dose-dependent inhibition in HepG2 cells, lipofectin (Example 5); type: cell-based; conditions: 9.375 nM, 16 hours
MEASURED PROPERTY: percent inhibition of human Factor XI mRNA, relative to untreated control cells (%)

| SUBSTANCE | OBSERVED VALUE |
| --- | --- |
| 417003 (antisense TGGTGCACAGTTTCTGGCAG; 2-13-5 gapmer, wing sugar chemistry not given here, further chemistry not given here) [compound 417003] | 48 |
| 416864 (antisense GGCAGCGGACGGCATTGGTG; 5-10-5 gapmer, wing sugar chemistry not given here, further chemistry not given here) [compound 416864] | 42 |
| 416892 (antisense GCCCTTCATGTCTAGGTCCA; 3-14-3 chimeric gapmer, wing sugar chemistry not given here, further chemistry not given here) [compound 416892] | 49 |
